# Measured On: UniProtKB Q5L478
# Experiment Description: Inhibition of HCV GT1a NS5A assessed as suppression of replicon RNA level by real-time PCR analysis
# Condition: Hepatitis C virus subtype 1a
Response field label: string, one of met (EC90 strictly below 0.01 nM) or not met.

A record lists CCOc1cccc(C2Oc3cc(-c4cnc([C@@H]5CCCN5C(=O)[C@@H](NC(=O)OC)C(C)C)[nH]4)ccc3-c3cc4cc(-c5cnc([C@@H]6CCCN6C(=O)[C@@H](NC(=O)OC)C(C)C)[nH]5)ccc4n32)c1 (some centres not stated) . Is its EC90 below 0.01 nM?
not met

A record lists COC(=O)N[C@H](C(=O)N1CCC[C@H]1c1ncc(-c2cc(F)c3c(c2)O[C@@H](c2ccccc2)n2c-3c(Cl)c3cc(-c4cnc([C@@H]5CCCN5C(=O)[C@@H](NC(=O)OC)C(C)C)[nH]4)ccc32)[nH]1)C(C)C . Is its EC90 below 0.01 nM?
not met

A record lists COC(=O)N[C@H](C(=O)N1C[C@H](F)C[C@H]1c1ncc(-c2cc(F)c3c(c2)OC(c2cccc(O[C@@H]4CCOC4)c2)n2c-3cc3cc(-c4cnc([C@@H]5C[C@@H](F)CN5C(=O)[C@@H](NC(=O)OC)C(C)C)[nH]4)ccc32)[nH]1)C(C)C (mixture of isomers) . Is its EC90 below 0.01 nM?
not met

A record lists COC(=O)N[C@H](C(=O)N1CCC[C@H]1c1ncc(-c2ccc3c(c2)cc2n3C(c3ccc(OC(F)(F)F)cc3)Oc3cc(-c4cnc([C@@H]5C[C@@H](F)CN5C(=O)[C@@H](NC(=O)OC)C(C)C)[nH]4)cc(F)c3-2)[nH]1)C(C)C (some centres not stated) . Is its EC90 below 0.01 nM?
not met

A record lists COC(=O)N[C@H](C(=O)N1CCC[C@H]1c1ncc(-c2ccc3c(c2)cc2n3C(c3cccc(OC(F)F)c3)Oc3cc(-c4cnc([C@@H]5C[C@@H](F)CN5C(=O)[C@@H](NC(=O)OC)C(C)C)[nH]4)cc(F)c3-2)[nH]1)C(C)C (some centres not stated) . Is its EC90 below 0.01 nM?
met

A record lists COC(=O)N[C@H](C(=O)N1CCC[C@H]1c1ncc(-c2ccc3c(c2)O[C@@H](c2ccccc2)n2c-3c(F)c3cc(-c4cnc([C@@H]5CCCN5C(=O)[C@@H](NC(=O)OC)C(C)C)[nH]4)ccc32)[nH]1)C(C)C . Is its EC90 below 0.01 nM?
met

A record lists COC(=O)N[C@H](C(=O)N1CCC[C@H]1c1ncc(-c2ccc3c(c2)OC(c2cc(Cl)cc(OC)c2)n2c-3cc3cc(-c4cnc([C@@H]5CCCN5C(=O)[C@@H](NC(=O)OC)C(C)C)[nH]4)ccc32)[nH]1)C(C)C (mixture of isomers) . Is its EC90 below 0.01 nM?
not met

A record lists COC(=O)N[C@H](C(=O)N1C[C@H](F)C[C@H]1c1ncc(-c2ccc3c(c2)OC(c2ccccc2)n2c-3c(F)c3cc(-c4cnc([C@@H]5C[C@@H](F)CN5C(=O)[C@@H](NC(=O)OC)C(C)C)[nH]4)ccc32)[nH]1)C(C)C (mixture of isomers) . Is its EC90 below 0.01 nM?
not met

A record lists COC(=O)N[C@H](C(=O)N1CCC[C@H]1c1ncc(-c2ccc3c(c2)cc2n3[C@H](c3ccccc3)Oc3cc(-c4cnc([C@@H]5CCCN5C(=O)[C@@H](NC(=O)OC)C(C)C)[nH]4)c(F)cc3-2)[nH]1)C(C)C . Is its EC90 below 0.01 nM?
met

---

# Measured On: Nonstructural protein 5A (Hepatitis C virus)
# Sequence (whole entry): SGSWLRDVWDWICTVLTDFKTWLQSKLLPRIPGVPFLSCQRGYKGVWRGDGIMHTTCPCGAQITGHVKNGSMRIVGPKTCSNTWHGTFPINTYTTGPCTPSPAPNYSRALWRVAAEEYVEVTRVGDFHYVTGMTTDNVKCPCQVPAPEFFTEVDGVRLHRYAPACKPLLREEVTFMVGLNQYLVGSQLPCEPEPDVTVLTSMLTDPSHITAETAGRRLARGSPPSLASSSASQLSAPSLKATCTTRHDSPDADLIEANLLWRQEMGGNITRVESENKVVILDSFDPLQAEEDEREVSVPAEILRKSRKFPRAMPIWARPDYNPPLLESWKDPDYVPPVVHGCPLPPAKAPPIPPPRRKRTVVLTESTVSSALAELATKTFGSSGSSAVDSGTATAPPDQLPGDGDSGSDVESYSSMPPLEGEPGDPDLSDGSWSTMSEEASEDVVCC
# Experiment Description: Inhibition of HCV GT3a NS5A assessed as suppression of replicon RNA level by real-time PCR analysis
# Condition: Hepatitis C virus subtype 3a
Give measured EC90 for each item. Keep answers brief.
Value expressed in nM; do not type the unit.

Please list EC90 recorded for the compound COC(=O)N[C@H](C(=O)N1CCC[C@H]1c1ncc(-c2ccc3c(c2)OCn2c-3c(-c3ccccc3)c3cc(-c4cnc([C@@H]5CCCN5C(=O)[C@@H](NC(=O)OC)C(C)C)[nH]4)ccc32)[nH]1)C(C)C
3

Please list EC90 recorded for the compound COC(=O)N[C@H](C(=O)N1C[C@H](F)C[C@H]1c1ncc(-c2cc(F)c3c(c2)OC(c2ccc(OC(F)(F)F)cc2)n2c-3cc3cc(-c4cnc([C@@H]5C[C@@H](F)CN5C(=O)[C@@H](NC(=O)OC)C(C)C)[nH]4)ccc32)[nH]1)C(C)C (some centres undefined)
1

Please list EC90 recorded for the compound COC(=O)N[C@H](C(=O)N1CCC[C@H]1c1ncc(-c2ccc3c(c2)cc2n3C(c3cccc(OC(F)F)c3)Oc3cc(-c4cnc([C@@H]5C[C@@H](F)CN5C(=O)[C@@H](NC(=O)OC)C(C)C)[nH]4)cc(F)c3-2)[nH]1)C(C)C (some centres undefined)
0.2

Please list EC90 recorded for the compound COC(=O)N[C@H](C(=O)N1CCC[C@H]1c1ncc(-c2ccc3c(c2)cc2n3C(c3ccccc3)Oc3cc(-c4cnc([C@@H]5C[C@@H](F)CN5C(=O)[C@@H](NC(=O)OC)C(C)C)[nH]4)cc(F)c3-2)[nH]1)C(C)C (mixture of isomers)
0.1

---

# Experiment Description: Clearance in Sprague-Dawley rat at 10 mg/kg, po or 2 mg/kg, iv
# Type: ADME, organism-based
# Condition: in vivo
Measurement Type: clearance (mL/min/kg)
Value expressed in mL/min/kg; do not type the unit.

Please list clearance recorded for the compound COC(=O)N[C@H](C(=O)N1CCC[C@H]1c1ncc(-c2cc(F)c3c(c2)OC(c2cccc(OC)c2)n2c-3cc3cc(-c4cnc([C@@H]5CCCN5C(=O)[C@@H](NC(=O)OC)C(C)C)[nH]4)ccc32)[nH]1)C(C)C (some centres not stated)
10

Please list clearance recorded for the compound COC(=O)N[C@H](C(=O)N1CCC[C@H]1c1ncc(-c2cc(F)c3c(c2)OC(c2cc(Cl)cc(OC)c2)n2c-3cc3cc(-c4cnc([C@@H]5CCCN5C(=O)[C@@H](NC(=O)OC)C(C)C)[nH]4)ccc32)[nH]1)C(C)C (some centres not stated)
8

---

Give measured EC90 for each item. Keep answers brief.
# Measured On: Nonstructural protein 5A (Hepatitis C virus) (UniProt Q5L478)
# Experiment Description: Inhibition of HCV GT1b NS5A assessed as suppression of replicon RNA level by real-time PCR analysis
# Condition: Hepatitis C virus subtype 1b
Value expressed in pM; do not type the unit.

Please list EC90 recorded for the compound COC(=O)N[C@H](C(=O)N1C[C@H](F)C[C@H]1c1ncc(-c2ccc3c(c2)OC(c2ccccc2)n2c-3c(F)c3cc(-c4cnc([C@@H]5C[C@@H](F)CN5C(=O)[C@@H](NC(=O)OC)C(C)C)[nH]4)ccc32)[nH]1)C(C)C (mixture of isomers)
5

Please list EC90 recorded for the compound COC(=O)N[C@H](C(=O)N1C[C@H](F)C[C@H]1c1ncc(-c2cc(F)c3c(c2)OC(c2cccc(OC)c2)n2c-3cc3cc(-c4cnc([C@@H]5C[C@@H](F)CN5C(=O)[C@@H](NC(=O)OC)C(C)C)[nH]4)ccc32)[nH]1)C(C)C (some centres undefined)
7

Please list EC90 recorded for the compound COC(=O)N[C@H](C(=O)N1CCC[C@H]1c1ncc(-c2ccc3c(c2)OCn2c-3c(-c3ccccc3)c3cc(-c4cnc([C@@H]5CCCN5C(=O)[C@@H](NC(=O)OC)C(C)C)[nH]4)ccc32)[nH]1)C(C)C
4

Please list EC90 recorded for the compound COC(=O)N[C@H](C(=O)N1CCC[C@H]1c1ncc(-c2ccc3c(c2)cc2n3[C@H](c3ccccc3)Oc3cc(-c4cnc([C@@H]5CCCN5C(=O)[C@@H](NC(=O)OC)C(C)C)[nH]4)c(F)cc3-2)[nH]1)C(C)C
3

Please list EC90 recorded for the compound COC(=O)N[C@H](C(=O)N1CCC[C@H]1c1ncc(-c2ccc3c(c2)OCn2c-3c(Cc3ccccc3)c3cc(-c4cnc([C@@H]5CCCN5C(=O)[C@@H](NC(=O)OC)C(C)C)[nH]4)ccc32)[nH]1)C(C)C
10

Please list EC90 recorded for the compound COC(=O)N[C@H](C(=O)N1CCC[C@H]1c1ncc(-c2ccc3c(c2)cc2n3[C@H](c3ccccc3)Oc3c-2ccc(-c2cnc([C@@H]4CCCN4C(=O)[C@@H](NC(=O)OC)C(C)C)[nH]2)c3F)[nH]1)C(C)C
3

Please list EC90 recorded for the compound COC(=O)N[C@H](C(=O)N1CCC[C@H]1c1ncc(-c2ccc3c(c2)cc2n3C(c3ccccc3)Oc3cc(-c4cnc([C@@H]5C[C@@H](F)CN5C(=O)[C@@H](NC(=O)OC)C(C)C)[nH]4)cc(F)c3-2)[nH]1)C(C)C (mixture of isomers)
3

Please list EC90 recorded for the compound CCCCOc1cccc(C2Oc3cc(-c4cnc([C@@H]5C[C@@H](F)CN5C(=O)[C@@H](NC(=O)OC)C(C)C)[nH]4)cc(F)c3-c3cc4cc(-c5cnc([C@@H]6C[C@@H](F)CN6C(=O)[C@@H](NC(=O)OC)C(C)C)[nH]5)ccc4n32)c1 (some centres undefined)
8

Please list EC90 recorded for the compound COC(=O)N[C@H](C(=O)N1C[C@H](F)C[C@H]1c1ncc(-c2ccc3c(c2)OC(c2ccccc2)n2c-3cc3cc(-c4cnc([C@@H]5C[C@@H](F)CN5C(=O)[C@@H](NC(=O)OC)C(C)C)[nH]4)ccc32)[nH]1)C(C)C (mixture of isomers)
4
